Test: Selectivity index, ratio of CC50 for mouse J774.A1 cells to IC50 for amastigote form of Leishmania donovani MHOM/IN/80/Dd8
Assay type: toxicity
Conditions: read-out: Ratio CC50/IC50
// reported selectivity ratio per item

- molecule: "COC(=O)c1c(NCCCCNc2ccnc3cc(Cl)ccc23)noc1-c1ccccc1[N+](=O)[O-]"
  selectivity ratio: 8.99
- molecule: "COC(=O)c1c(NCCNc2cc(C(F)(F)F)nc3c(C(F)(F)F)cccc23)noc1-c1ccc([N+](=O)[O-])cc1"
  selectivity ratio: 4.03
- molecule: "CCCCCCCCCCCCCCCCOP(=O)([O-])OCC[N+](C)(C)C"
  selectivity ratio: 5.76
- molecule: "O=C(NCc1cccc(Cl)c1Cl)c1c([N+](=O)[O-])noc1-c1ccc(Cl)cc1"
  selectivity ratio: 3.76
- molecule: "COC(=O)c1c(NCCNc2ccnc3cc(Cl)ccc23)noc1-c1ccccc1F"
  selectivity ratio: 2.32
- molecule: "COc1ccc(CNC(=O)c2c([N+](=O)[O-])noc2-c2ccc(Cl)cc2Cl)cc1OC"
  selectivity ratio: 41.9
- molecule: "O=C(NCc1ccc(F)cc1)c1c([N+](=O)[O-])noc1-c1ccc(Cl)cc1"
  selectivity ratio: 4.72
- molecule: "COC(=O)c1c(NCCNc2ccnc3cc(Cl)ccc23)noc1-c1cc2c(cc1[N+](=O)[O-])OCO2"
  selectivity ratio: 2.48
